Data origin, for the record: paper PMC10397247

# study system: T1, 4H48-bN
# T1 chain: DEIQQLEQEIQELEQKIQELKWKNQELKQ
# experiment summary: two-hybrid library CCNG1;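 note: natural log of median RNA to DNA barcode read ratio; higher means stronger binding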
observable: interaction score

binder	obs value
DKIQQLKQKIQELKQEIQELEWENQELEQ [4H2883-bN]	2
DEIQQLEQKIQELKQENQELEWKIQELKQ [4H342-bN]	-1.99
DEIQQLEQEIQELEQENQELEWENQELEQ [4H19-bN]	-0.58
DKIQQLKQKIQELKQKNQELKWKNQELKQ [4H2944-bN]	-0.0947
DKIQQLKQENQELEQEIQELEWKNQELKQ [4H2696-bN]	-1.05
DKIQQLKQKIQELKQKNQELKWEIQELEQ [4H2937-bN]	-0.313

1 = DEIQQLEQEIQELEQKIQELKWKNQELKQ [4H48-bN]
2 = DKIQELKKEIEELERKNWELKKEIQELKR [4H2618-bH]
I'm curious whether 1 or 2 has the smaller interaction score number. Which is it? Answer with the label corresponding to your selection. 1
